Data provenance: the supplement of paper PMC10567573

B1: FBF1 (parent)
chain: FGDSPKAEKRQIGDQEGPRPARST

Variants of: B1
Assay: protein stability index of a GFP-peptide fusion (GPS, HEK-293T) (PSI 1-6); higher = more stable;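 further: lentivirally expressed fusions sorted by FACS into six bins by GFP to DsRed ratio, PSI derived from sequencing read proportions per bin multiplied by bin number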
Conditions: c terminus: a fixed tail appended
Reported protein stability index by item:
Recorded Endpoint: protein stability index

# Mutant Designation, Assay Result
rows = [
    ("E8R", 4.43),
    ("P5K", 4.43),
    ("P20Y", 4.91),
    ("E16G", 3.41),
    ("D3P", 5.14),
    ("F1L", 5.36),
    ("G17W", 4.17),
    ("Q11H", 5.16),
    ("R22K", 4.92),
    ("P5V", 4.13),
    ("S4I", 5.33),
    ("A7H", 4.03),
    ("F1M", 5.85),
    ("F1T", 5.76),
    ("G13N", 5.01),
    ("R19C", 5.4),
    ("G17T", 4.67),
    ("Q15P", 5.38),
    ("D3L", 5.13),
    ("G2W", 5.31),
    ("G2R", 5.98),
    ("E8D", 5.48),
]
